Values compiled from patent US7056903B2.

readout: melting point

Use these answered entries as a reference point.
{"compound": "O=C(N[C@H](Cc1ccccc1)C(=O)O)OCc1ccc(Cn2ccc3ccccc32)cc1", "melting point": "122 to 125 °C"}
{"compound": "O=C(Cc1ccc(OCc2ccccc2)cc1)NC(Cc1ccccc1)C(=O)O (stereo not shown)", "melting point": "118.3 to 119.9 °C"}
{"compound": "CS(=O)(=O)Nc1cccc(OCc2ccc(COC(=O)N[C@H](Cc3ccccc3)C(=O)O)cc2)c1", "melting point": "161.9 to 164.9 °C"}

Req: Return reported melting point; argument: O=C(N[C@H](Cc1ccccc1)C(=O)O)OCc1ccc2oc(-c3ccccc3)cc2c1
Resp: 172.8 to 173.5 °C

Req: Try this compound next: O=C(N[C@H](Cc1ccccc1)C(=O)O)OCc1ccc2oc(-c3cccc4[nH]ccc34)nc2c1
Resp: 187 to 189 °C

Req: Try this compound next: O=C(N[C@H](Cc1ccc(F)cc1)C(=O)O)OCc1cc2cc(-c3cc(F)cc(F)c3)ccc2o1
Resp: 174 to 175 °C

Req: Try this compound next: O=C(N[C@H](Cc1ccccc1)C(=O)O)OCc1cc2cc(-c3ccc(Cl)cc3)ccc2o1 (hydrate or solvate)
Resp: 129.5 to 144 °C

Req: Try this compound next: O=C(NC(Cc1ccncc1)C(=O)O)OCc1cc2cc(-c3ccccc3)ccc2o1 (stereo not shown)
Resp: 219 to 220 °C

Req: Try this compound next: O=C(N[C@H](Cc1ccc(F)cc1)C(=O)O)OCc1cc2cc(-c3ccc4c(c3)OCO4)ccc2o1
Resp: 132 to 134.5 °C

Req: Try this compound next: O=C(NC(Cc1ccccc1)C(=O)O)OCc1ccc(COCc2ccccc2)cc1 (stereo not shown)
Resp: 78.3 to 79.9 °C

Req: Try this compound next: O=C(N[C@H](Cc1ccccc1)C(=O)O)OCc1ccc(OCCOc2ccccc2)cc1
Resp: 130 to 131.3 °C

Req: Try this compound next: O=C(N[C@H](Cc1ccc(Cl)cc1)C(=O)O)OCc1cc2cc(-c3ccc(F)cc3)ccc2o1
Resp: 130 to 154.5 °C

Req: Try this compound next: Cn1cc(C[C@@H](NC(=O)OCc2ccc(-c3ccccc3)cc2)C(=O)O)c2ccccc21
Resp: 156.7 to 157.2 °C

Req: Try this compound next: O=C(NC(Cc1ccc(F)cc1)C(=O)O)OCc1cc2cc(-c3cc(Cl)cc(Cl)c3)ccc2o1 (stereo not shown)
Resp: 101.1 to 103.2 °C

Req: Try this compound next: O=C(N[C@H](Cc1ccccc1)C(=O)O)OCc1cc2cc(-c3ccccc3F)ccc2o1 (hydrate or solvate)
Resp: 97.1 to 100.8 °C

###

readout: melting point

{"compound": "O=C(N[C@H](Cc1nc2ccccc2[nH]1)C(=O)O)OCc1ccc(-c2ccccc2)cc1 [Compound 150]", "melting point": "243 to 245 °C"}

Req: Return reported melting point; argument: O=C(NC(Cc1cnccn1)C(=O)O)OCc1cc2cc(-c3ccccc3)ccc2o1 (stereo not shown) [Compound 165]
Resp: 144.9 to 146 °C

Req: Try this compound next: O=C(N[C@H](Cc1ccccc1)C(=O)O)OCc1cc2cc(-c3cccnc3)ccc2o1 [Compound 124]
Resp: 143 to 145.7 °C

Req: Try this compound next: O=C(NC(Cc1ccccc1)C(=O)O)OCc1ccc(OCc2ccc(F)cc2)cc1 (stereo not shown) [Compound 85]
Resp: 134 to 138 °C
